// reported normalised response for each item listed
System: CAL-85-1
Test: normalised response (% of control), CellTiter-Glo; higher = more viable cells (100 = DMSO, 0 = benzethonium chloride kill control)
Settings: incubation time: 72 h
Numeric answer only, unit % assumed.

Below are worked cases with known answers.
{"columns": ["Molecule", "normalised response, %"],
 "data": [
  ["C[C@@]1(C(=O)Nc2ccc(F)nc2)CCCN1c1nc(Nc2cc(C3CC3)n[nH]2)c2cccn2n1 (100 nM)", 74.9],
  ["CCS(=O)(=O)c1cccc(-c2cc(C(=O)NC3CCN(C)CC3)c(C)c3[nH]c4ncc(C)cc4c23)c1 [TAK-901] (10 nM)", 100],
  ["C[C@@H]1C=C2C(=O)O[C@@H]3CC[C@H](C1)[C@]23O [Galiellalactone] (500 nM)", 100],
  ["Cn1cnc2c(F)c(Nc3ccc(Br)cc3F)c(C(=O)NOCCO)cc21 [MEK-162] (10 nM)", 95.2],
  ["Cn1c(=O)c(F)c(Nc2ccc(I)cc2F)c2c(=O)n(C[C@@H](O)CO)cnc21 [TAK-733] (10 nM)", 93.7]
]}

The record that follows has no normalised response shown yet.
What value of measured normalised response is listed for COc1ccc(C2=N[C@@H](c3ccc(Cl)cc3)[C@@H](c3ccc(Cl)cc3)N2C(=O)N2CCNC(=O)C2)c(OC(C)C)c1 [Nutlin-3] (100 nM) ?
92.4
